Consider the following compounds; for each one, report its TGI.
# Tested on: OVCAR-4 ovarian
# Measurement Notes: NCI tumour cell line growth inhibition, 48 h

Below: 4 compounds and their reported TGI.
CCCCCCC(C)CCCCCCCCCCC(=O)O (stereo not given) = > 100 µM
CCNCCNc1cc(-c2ccc(C#N)cc2)c(C#N)c2nc3ccccc3n12 = 8.74 µM
CC(C)[O-].CC(C)[O-].O=c1cccccc1[O-].O=c1cccccc1[O-].[Ti+4] = > 100 µM
c1ccc(C2CC(=NC3CCCCC3)Nc3ccccc3N2)cc1 (stereo not given) = > 100 µM

Record TGI for all entries; do not skip any.
1. Cc1ccccc1/C=C/C(=O)c1ccccc1
2. COC(=O)c1ccc2c(c1)C(=O)c1c-2n(CCCN=[N+]=[N-])c(=O)c2cc([N+](=O)[O-])ccc12

33.2 µM
> 100 µM

Record TGI for all entries; do not skip any.
1. Cc1cc(O)c(-c2cc(O)c(C)cc2O)cc1O
2. O=[N+]([O-])c1ccc(-c2cc3c(Nc4ccc(Cl)c(C(F)(F)F)c4)ncnc3s2)cc1
3. COc1ccc(C2Oc3c(c(O)cc4c3[C@H](c3ccc(O)cc3O)[C@H](O)C(c3ccc(O)c(O)c3)O4)C[C@@H]2O)cc1O (stereo not given in full)
4. O=C(CC(C(=O)c1ccco1)c1ccco1)c1ccco1 (stereo not given)

1. 20.9 µM
2. > 100 µM
3. > 100 µM
4. > 100 µM
